# target.system: Thyrotropin receptor (Homo sapiens) (UniProt P16473)
# Sequence (P16473 whole entry, looked up): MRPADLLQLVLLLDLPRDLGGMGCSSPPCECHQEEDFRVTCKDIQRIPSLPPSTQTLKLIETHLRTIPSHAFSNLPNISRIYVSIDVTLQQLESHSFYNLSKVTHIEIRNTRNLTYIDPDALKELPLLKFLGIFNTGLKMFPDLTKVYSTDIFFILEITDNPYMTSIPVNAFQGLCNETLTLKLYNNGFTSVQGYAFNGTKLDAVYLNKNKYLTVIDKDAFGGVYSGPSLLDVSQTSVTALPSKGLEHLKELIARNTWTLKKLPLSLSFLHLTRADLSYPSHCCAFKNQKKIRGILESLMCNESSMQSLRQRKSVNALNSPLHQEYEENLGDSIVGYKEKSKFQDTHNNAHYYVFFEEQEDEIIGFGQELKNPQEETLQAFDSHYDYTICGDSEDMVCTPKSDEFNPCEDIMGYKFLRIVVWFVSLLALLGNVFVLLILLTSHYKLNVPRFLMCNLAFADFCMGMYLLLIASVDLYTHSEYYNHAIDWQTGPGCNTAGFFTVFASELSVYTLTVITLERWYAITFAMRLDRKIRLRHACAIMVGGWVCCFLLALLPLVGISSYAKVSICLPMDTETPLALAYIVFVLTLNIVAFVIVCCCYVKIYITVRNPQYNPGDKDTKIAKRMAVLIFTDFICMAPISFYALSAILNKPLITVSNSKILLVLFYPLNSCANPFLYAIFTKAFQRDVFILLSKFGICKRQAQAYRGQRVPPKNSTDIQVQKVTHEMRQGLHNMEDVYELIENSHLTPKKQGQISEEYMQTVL
# protocol.details: qHTS assay to identify small molecule agonists of the thyroid stimulating hormone receptor (TSHR) signaling pathway (AID 1224843); further: nearly all actives have a fitted effect of over 45% in size
# assay.context: TSHR-HEK293 cells, cAMP HTRF, agonist mode, 30 min; series mostly up to 92.4 µM
Records with an inconclusive call do not appear. Calls of active or inactive are those of the source. The call rests on the fitted dose curve.
Return exactly one item of active, inactive

Call for entry O=C(Cl)c1ccc(Cl)cc1 :
inactive

Same question for COP(=O)(CCC(=O)NCO)OC please.
inactive

Same question for O=C(CCl)Nc1ccccc1 please.
inactive

Same question for O=CC(Br)(Br)Br please.
active

Same question for CC(C)CCCCCOC(=O)c1ccccc1C(=O)OCCCCCC(C)C please.
inactive

Same question for O=C(O)c1cc[c]([Hg][Cl])cc1 please.
active

Same question for CC(C)OC(=O)C(O)(c1ccc(Cl)cc1)c1ccc(Cl)cc1 please.
active

Same question for ClCCN1CCOCC1 please.
inactive

Same question for COc1cccc2c1C(=O)c1c(O)c3c(c(O)c1C2=O)C[C@@](O)(C(=O)CO)CC3OC1CC(N2CCOC(OC)C2)C(O)C(C)O1 (stereo not given in full) please.
inactive

Same question for CCCN(CC)CC1COC2(CCC(C(C)(C)C)CC2)O1 (stereo not given) please.
inactive

Same question for N#CCCC(Br)(C#N)CBr (stereo not given) please.
active

Same question for CCCCCCCCCCCCCCCCCCn1cc[n+](C)c1 please.
inactive

----------
# protocol.details: qHTS assay to identify small molecule antagonists of the retinoic acid receptor (RAR) signaling pathway (AID 1159552; further: nearly all actives have a fitted effect of over 50% in size)
# assay.context: C3RL4 RARE luciferase reporter, retinol-stimulated, 6 h; series mostly up to 92.4 µM
Records with an inconclusive call do not appear. Active and inactive are the calls of the source. The call rests on the fitted dose curve; in most records, active means well fitted inhibition curve with a large enough effect in the repeat runs; inconclusive means weak or mixed curves, or effect the other way; inactive means no such curve, though single readings can be large or run the other way.
Return exactly one item of active, inactive

Some solved entries appear below for comparison.
compound="O=C(O)C1C2CCC(O2)C1C(=O)O (centres undefined)" class_assignment=inactive
compound=c1ccc2c(c1)[nH]c1cnccc12 class_assignment=inactive
compound=Oc1ccc2ccc3cccc4ccc1c2c34 class_assignment=inactive
compound="CC(C)(C)C(O)/C(=C\\c1ccc(Cl)cc1Cl)n1cncn1 (centres undefined)" class_assignment=active
compound=COP(=S)(OC)Oc1cc(Cl)c(Br)cc1Cl class_assignment=inactive

Call for entry O=c1oc2ccccc2c(O)c1Cc1c(O)c2ccccc2oc1=O :
inactive

Same question for C=CCC1=C(C)C(OC(=O)C2C(C=C(C)C)C2(C)C)CC1=O (centres undefined) please.
active

Same question for CC(O)C#N (centres undefined) please.
inactive

----------
# protocol.details: qHTS RealTime-Glo MT Cell Viability Assay in HepG2 cells - 40 hour (AID 1224870); further: nearly all actives have a fitted effect of over 50% in size
# assay.context: RealTime-Glo luminescence; series mostly up to 76.8 µM
Inconclusive results are not listed. The source made the active and inactive calls. Calls come from the whole dose curve; as a rule, active = well fitted cell-killing curve with a large enough effect in the repeat runs; inconclusive = weak or mixed curves, or effect the other way; inactive = flat fitted curve, though single readings scatter.
Return exactly one item of label 1 = active, label 0 = inactive

Call for entry O=C1C=CC(=O)c2ccccc21 :
label 1

Same question for COc1ccc(OC)c(C=O)c1 please.
label 0

Same question for CC(C)[C@H](C(=O)O[C@H](C#N)c1cccc(Oc2ccccc2)c1)c1ccc(Cl)cc1 please.
label 0

Same question for Oc1cc(Cl)c(Cl)c(Cl)c1 please.
label 0

Same question for CC(=O)[O-].[Tl+] please.
label 0

Same question for ClC1=C(Cl)[C@]2(Cl)[C@@H]3[C@@H](Cl)[C@H](Cl)C[C@@H]3[C@@]1(Cl)C2(Cl)Cl please.
label 0

Same question for CC(C)OC(=S)S please.
label 0

Same question for Clc1ccc(CCC(Cn2ccnc2)Sc2c(Cl)cccc2Cl)cc1 (stereo unspecified) please.
label 0

Same question for COc1cccc(C(=O)CCN[C@@H](C)[C@H](O)c2ccccc2)c1 please.
label 1

Same question for ClCCN1CCOCC1 please.
label 0

Same question for COS(=O)(=O)c1ccc(C)cc1 please.
label 0

Same question for Cc1cccc(OP(=O)(Oc2cccc(C)c2)Oc2cccc(C)c2)c1 please.
label 0

Same question for COCC(=O)N(c1c(C)cccc1C)[C@H](C)C(=O)OC please.
label 0

Same question for O=C(NC(=O)c1c(F)cccc1F)Nc1cc(Cl)c(OC(F)(F)C(F)F)c(Cl)c1 please.
label 0

Same question for CNC(C)Cc1ccc2c(c1)OCO2 (stereo unspecified) please.
label 0

Same question for BrC(Br)Br please.
label 0

Same question for COc1cccc2c1C(=O)c1c(O)c3c(c(O)c1C2=O)C[C@@](O)(C(=O)CO)CC3OC1CC(N2CCOC(OC)C2)C(O)C(C)O1 (stereo partly specified) please.
label 1

Same question for O=c1oc2ccccc2c(O)c1Cc1c(O)c2ccccc2oc1=O please.
label 0

Same question for CCCCOCN(C(=O)CCl)c1c(CC)cccc1CC please.
label 0

Same question for CC(C)(O)c1cnn2c(-c3ccc(F)c(-c4c(F)cccc4C#N)c3)cnc2n1 please.
label 0

Same question for C=CCC1=C(C)C(OC(=O)C2C(C=C(C)C)C2(C)C)CC1=O (stereo unspecified) please.
label 0
